The reported measurements were obtained from paper PMC5540273.

- Test system: EPHA3
- condition details: concentration: 1 μM, replicates: in singlicate; n = 1;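 also: KINOMEscan kinase panel screen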
Measured %Inh accompanies every entry in the list below.
Write down the numeric answer in % and omit the unit.

See these solved cases before continuing.
# molecule, %Inh / %
records = [
    ("CN(C)CCN(C)C(=O)c1cc(-c2ccncc2)c(-c2ccc(Cl)c(O)c2)o1.Cl.Cl [SB-710397]", 0),
    ("CC(C)(C)c1ccc(C(=O)Nc2cn3cc(-c4cccnc4)ccc3n2)cc1", 9),
    ("Cc1ccc(C(=O)Nc2ccc(Nc3ccnc4cc(-c5ccccn5)ccc34)cc2O)cc1.Cl [GW440146]", 0),
    ("COc1ccc(C2=C(Nc3cccc(C(=O)O)c3)C(=O)NC2=O)cc1 [SB-390765]", 11),
    ("COc1ccc(Nc2nccc(-c3cccc(NC(=O)c4cc5cc(F)ccc5[nH]4)c3)n2)cc1 [GSK1229782]", 35),
    ("COc1ccc(CNC(=O)NC2CCN(c3ccnc(Nc4cc(OC)c(OC)c(OC)c4)n3)C2)cc1 (centres unmarked) [GSK1379748]", 0),
    ("O=C(O)COc1ncnc2cc(-c3ccc4[nH]ncc4c3)sc12", 10),
]

Then there is this molecule:
Request: # query: %Inh of entry Fc1cc(Cl)ccc1Nc1ccnc2cc(-c3ccc(CN4CCCCC4)o3)ccc12 [GW560116]
Result: 33

----------
- Tested on: BRK
- Construct: gene PTK6
- condition details: concentration: 1 μM, replicates: in singlicate; n = 1
Please note: %Inh exactly at 3% is class 0. Only values below 3% get class 1.

# molecule, subject of test, group
data = [
    ("O=C(Nc1ccc2c(c1)OCO2)NC1CCN(c2ccnc(Nc3ccc(F)cc3)n2)C1 (stereo not shown) [GSK1379724]", "BRK", "class 0"),
    ("COc1cc(Nc2nccc(N3CCC(NC(=O)Nc4cc(C)ccc4C)C3)n2)cc(OC)c1OC (stereo not shown) [GSK1379762]", "BRK", "class 0"),
    ("Cl.O=C(Nc1cccc(-c2nn3ncccc3c2-c2ccnc(Nc3cccnc3)n2)c1)c1c(F)cccc1F [GSK312879]", "BRK", "class 0"),
    ("COc1ccc(C2=C(Nc3cccc(C(=O)O)c3)C(=O)NC2=O)cc1 [SB-390765]", "BRK", "class 1"),
    ("COc1cc2ncnc(Nc3ccc4nc(-c5ccccc5)[nH]c4c3)c2cc1OC.Cl [GW282450]", "BRK", "class 1"),
    ("COc1cccc(NC(=O)NC2CCN(c3ccnc(Nc4ccc(F)cc4)n3)C2)c1 (stereo not shown) [GSK1379721]", "BRK", "class 1"),
    ("Cc1cc(NCC(c2ccccc2)c2ccccc2)nc(NCc2ccc(C(F)(F)F)cc2)n1 [GW497681]", "BRK", "class 1"),
    ("Cn1cncc1-c1ccc2ncnc(Nc3ccc(OCc4ccccc4)cc3)c2c1 [GW320571]", "BRK", "class 0"),
    ("NC(=O)c1nnc2ccccc2c1N", "BRK", "class 0"),
    ("O=c1cc(N2CCOCC2)nc2n(Cc3cccc(Cl)c3Cl)ccn12 [GSK2286295]", "BRK", "class 0"),
]

Request: Decide: %Inh of COc1cc2nccc(Nc3ccc(NC(=O)c4ccc(C)cc4)c(O)c3)c2cc1OC.Cl [GW440132] strictly below 3%?
Result: class 0

Request: And Cc1cccc(-c2nc(C)cc(Nc3ccncc3)n2)n1 [GSK257997] ?
Result: class 1

Request: And CN(C)CCN(C)C(=O)c1cc(-c2ccncc2)c(-c2ccc(Cl)c(O)c2)o1.Cl.Cl [SB-710397] ?
Result: class 0

Request: And Fc1cccc(COc2nnc(-c3ccc4c(c3)CCO4)o2)c1 ?
Result: class 1

Request: And Fc1cc(Cl)ccc1Nc1ccnc2cc(I)ccc12 [GW551191] ?
Result: class 0

----------
Measured %Inh accompanies every entry in the list below.
- Test system: MARK4
- condition details: concentration: 1 μM, replicates: in singlicate; n = 1
Write down the numeric answer in % and omit the unit.

See these solved cases before continuing.
# molecule, %Inh, %
rows = [
    ("Cl.O=C(Nc1cccc(-c2nn3ncccc3c2-c2ccnc(Nc3cccnc3)n2)c1)c1c(F)cccc1F", 0),
    ("CC(=O)Nc1nc2cnc(Nc3cc(NC(=O)c4cccc(CCC#N)c4)ccc3C)nc2s1", 12),
    ("COc1cc(Nc2nccc(N3CCC(NC(=O)Nc4cc(C)ccc4C)C3)n2)cc(OC)c1OC (stereo not drawn)", 9),
    ("Fc1cc(Cl)ccc1Nc1ccnc2cc(I)ccc12", 0),
    ("O=C(Nc1ccccc1)Nc1cccc(Oc2ccc3nccn3n2)c1", 9),
    ("O=C(Nc1n[nH]c2nc(-c3nccs3)c(Br)cc12)C1CCCC1", 0),
    ("Cc1cc(NCC(c2ccccc2)c2ccccc2)nc(NCc2ccc(C(F)(F)F)cc2)n1", 0),
    ("CS(=O)(=O)c1ccc(-c2nc3n(c2-c2ccncc2)CCC3)cc1", 0),
]

Then there is this molecule:
Request: Param readout = %Inh; param system = MARK4; param query = Cc1c(Cn2ccn3c(=O)cc(N4CCOCC4)nc23)cccc1C(F)(F)F ; response: value
Result: 0

----------
- Tested on: BMPR2
- condition details: concentration: 1 μM, replicates: in singlicate; n = 1
Measured %Inh accompanies every entry in the list below.
Write down the numeric answer in % and omit the unit.

# compound, %Inh (%)
rows = [
    ("O=C(O)COc1ncnc2cc(-c3ccc4[nH]ncc4c3)sc12", 63),
    ("Cc1cccc(-c2nc(Nc3cccc(C(N)=O)c3)c3ccccc3n2)n1", 14),
    ("COc1ccc(C2=C(Nc3cccc(C(=O)O)c3)C(=O)NC2=O)cc1", 0),
    ("COc1ccccc1-c1ccc2c(NC(=O)C3CC3)n[nH]c2n1", 10),
]

Request: # query: %Inh of entry O=C(Nc1ccc2c(c1)OCO2)NC1CCN(c2ccnc(Nc3ccc(F)cc3)n2)C1 (centres unmarked)
Result: 18

----------
Measured %Inh accompanies every entry in the list below.
- Test system: MLK1
- Construct: gene MAP3K9
- condition details: concentration: 1 μM, replicates: in singlicate; n = 1

# compound, %Inh
rows = [
    ("Cc1cc(NCC(c2ccccc2)c2ccccc2)nc(NCc2ccc(C(F)(F)F)cc2)n1", "0%"),
]

Request: # query: %Inh of entry Cl.Oc1ccc(-c2nc(-c3ccccc3)[nH]c2-c2ccncc2)cc1
Result: 0%

Request: And CS(=O)(=O)c1ccc(-c2c(-c3ncn[nH]3)sc(N3CCOCC3)c2C#N)cc1 ?
Result: 0%

Request: And CSc1nn2c(=O)cc(N3CCOCC3)nc2n1Cc1cccc(C(F)(F)F)c1C ?
Result: 0%

Request: And Cc1ccc(NC(=O)Nc2cccc(Cl)c2)cc1-c1ccc(C(=O)Nc2ccncc2)cc1 ?
Result: 0%

Request: And Fc1cc(Cl)ccc1Nc1ccnc2cc(-c3ccc(CN4CCCCC4)o3)ccc12 ?
Result: 0%

Request: And Clc1cc(Cl)cc(Nc2ccnc(Nc3cc(Cl)cc(Cl)c3)n2)c1 ?
Result: 0%

Request: And CN1C(=O)C(Nc2ccc(Cl)c(C(=O)O)c2)=C(c2ccc(Cl)cc2)C1=O ?
Result: 0%

Request: And CCn1c(-c2ccccn2)nc2cnccc21 ?
Result: 12%

Request: And Fc1cccc(COc2nnc(-c3ccc4c(c3)CCO4)o2)c1 ?
Result: 0%

Request: And O=S(=O)(c1ccc(-c2ccnc3[nH]ccc23)cc1)N1CCCC1 ?
Result: 0%

Request: And COc1ccccc1-c1ccc2c(NC(=O)C3CC3)n[nH]c2n1 ?
Result: 8%

Request: And COc1ccc(CNC(=O)NC2CCN(c3ccnc(Nc4cc(OC)c(OC)c(OC)c4)n3)C2)cc1 (stereo not drawn) ?
Result: 0%

Request: And COc1ccc2nc(-c3cccc(C)n3)nc(Nc3ccncc3)c2c1 ?
Result: 0%

Request: And CC(C)(C)c1ccc(C(=O)Nc2cn3cc(-c4cccnc4)ccc3n2)cc1 ?
Result: 12%

Request: And Cn1ccc2ncnc(Oc3ccc(NC(=O)Nc4ccccc4)cc3)c21 ?
Result: 0%

Request: And O=C(Nc1ccc2c(c1)OCO2)NC1CCN(c2ccnc(Nc3ccc(F)cc3)n2)C1 (stereo not drawn) ?
Result: 0%

Request: And Cc1c(Cn2ccn3c(=O)cc(N4CCOCC4)nc23)cccc1C(F)(F)F ?
Result: 0%

Request: And Cn1ccc2ncnc(Oc3ccc(Nc4nc5ccccc5[nH]4)cc3)c21 ?
Result: 0%

Request: And Cc1cccc(-c2nc(Nc3cccc(C(N)=O)c3)c3ccccc3n2)n1 ?
Result: 4%

Request: And Cc1csc(-c2nc(Nc3ccncc3)c3ccccc3n2)n1 ?
Result: 8%
